optical density listing for selected binders.
# EXPERIMENTAL SYSTEM: T1, Human ACVR2A (human, UniProt P27037 20-135, limits assumed); note: test concentration or dose not given here
# T1 construct: also called activin receptor, type II A
# T1 sequence (P27037 20-135 limits assumed): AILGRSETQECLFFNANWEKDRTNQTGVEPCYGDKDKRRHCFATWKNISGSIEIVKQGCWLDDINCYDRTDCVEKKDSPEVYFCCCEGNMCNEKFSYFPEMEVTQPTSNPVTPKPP
# ASSAY EXPLANATION: ELISA
Number plus unit, in that order.

GET /values?readout=optical density&item= 368_D11 (antibody, V domains shown) VH: EVQLLESGGGLVQPGGSLRLSCAASGFTFDDYGMNWVRQAPGKGLEWVSNINYNGGYKSYADSVKGRFTISRDNSKNTLYLQMNSLRAEDTAVYYCARSANWHDTALDYWGQGTLVTVSS VL: DIQMTQSPSSLSASVGDRVTITCRASQSILTYLNWYQQKPGKAPKLVIYAATSRASGVPSRFSGSGSGTDFTLTISSLQPEDFATYYCQQSYDLPLTFGGGTKVEIK
2.8 OD

Next:
Looking for the measured optical density of 369_F03 (antibody, V domains shown) VH: EVQLLESGGGLVQPGGSLRLSCAASGFTFSDYGMNWVRQAPGKGLEWVSGINYNSGYTSYADSVKGRFTISRDNSKNTLYLQMNSLRAEDTAVYYCARSANWHDTALDYWGQGTLVTVSS VL: DIQMTQSPSSLSASVGDRVTITCRASQSIVSYVNWYQQKPGKAPKLLIYAATSLASGVPSRFSGSGSGTDFTLTISSLQPEDFATYYCQQSYDSPLTFGGGTKVEIK , can you help?
2.58 OD

Please answer likewise for 371_A06 (antibody, V domains shown) VH: EVQLLESGGGLVQPGGSLRLSCAASGFTFSSYGMNWVRQAPGKGLEWVAGINYNGGYTSYADSVKGRFTISRDNSKNTLYLQMNSLRAEDTAVYYCARSANWHDTALDYWGQGTLVTVSS VL: DIQMTQSPSSLSASVGDRVTITCRASQSILTYLNWYQQKPGKAPKLVIYAATSRHSGVPSRFSGSGSGTDFTLTISSLQPEDFATYYCQQSYDSPLTFGGGTKVEIK
2.65 OD
